Recorded MIC, one value per entry.
Test system: Staphylococcus aureus
Assay: Antibacterial activity against thiostrepton-resistant Staphylococcus aureus ATCC 6538P assessed as growth inhibition after 18 hrs by agar dilution method
Type: functional
Quick reminder: number only, in µg/mL, skip the unit.

smiles_text=CC[C@@H]1[C@@H](C)O[C@@](O)([C@@H](C)[C@H](O)[C@H](C)[C@H]2OC(=O)/C=C/C=C/[C@H](C)[C@@H]([C@@H](C)[C@@H](O)[C@H](C)[C@@]3(O)C[C@@H](O[C@H]4C[C@H](O)[C@H](O)[C@H](C)O4)[C@H](C)[C@@H](C)O3)OC(=O)/C=C/C=C/[C@@H]2C)C[C@H]1O[C@H]1C[C@H](O)[C@H](O)[C@H](C)O1 quantity_kind=MIC measured_value=2
smiles_text=CC[C@@H]1[C@@H](C)O[C@@](OC)([C@@H](C)[C@H](O)[C@H](C)[C@H]2OC(=O)/C=C/C=C/[C@H](C)[C@@H]([C@@H](C)[C@@H](O)[C@H](C)[C@@]3(O)C[C@@H](O[C@H]4C[C@H](O)[C@H](O)[C@H](C)O4)[C@H](CC)[C@@H](C)O3)OC(=O)/C=C/C=C/[C@@H]2C)C[C@H]1O[C@H]1C[C@H](O)[C@H](O)[C@H](C)O1 quantity_kind=MIC measured_value=2

Could you now consider this next compound?
IN: State the recorded MIC for this entry: `CC[C@@H]1[C@@H](C)OC([C@@H](C)[C@H](O)[C@H](C)[C@H]2OC(=O)/C=C/C=C/[C@H](C)[C@@H]([C@@H](C)[C@@H](O)[C@H](C)[C@@]3(O)C[C@@H](O[C@H]4C[C@H](O)[C@H](O)[C@H](C)O4)[C@H](CC)[C@@H](C)O3)OC(=O)/C=C/C=C/[C@@H]2C)=C[C@H]1O[C@H]1C[C@H](O)[C@H](O)[C@H](C)O1`
OUT: 4
